# System: painful stretchings induced by acetic acid
# procedureDetails: acetic acid induced stretching (analgesic effect)
# recordedConditions: 100 mg/kg oral, 0.7% acetic acid i.p., mice
testReadout: Analgesic (percentage diminution of times of painful stretchings) (%)
Your answer is read as %, so omit the unit and give the number.

Please report Analgesic (percentage diminution of times of painful stretchings) for the following compound: CCc1ccc(C(=O)c2ccc(C)cc2)cc1 [compound 33]
15.5

Please report Analgesic (percentage diminution of times of painful stretchings) for the following compound: CCCCOc1ccc(C(=O)c2c(C)cc(C)cc2C)cc1 [compound 94]
15.8

Please report Analgesic (percentage diminution of times of painful stretchings) for the following compound: Cc1ccc(C(=O)c2ccccc2)c(C)c1C [compound 31]
9.5

Please report Analgesic (percentage diminution of times of painful stretchings) for the following compound: Cc1cc(C)c(C(=O)c2ccc(Cl)cc2)c(C)c1 [compound 14]
19.2

Please report Analgesic (percentage diminution of times of painful stretchings) for the following compound: CCCCCc1ccc(C(=O)c2ccc(C)cc2)cc1 [compound 84]
15.3

Please report Analgesic (percentage diminution of times of painful stretchings) for the following compound: CCCCCCc1ccc(C(=O)c2ccccc2)cc1 [compound 24]
47.7

Please report Analgesic (percentage diminution of times of painful stretchings) for the following compound: COc1ccc(C(=O)c2ccccc2)cc1 [compound 28]
4.2

Please report Analgesic (percentage diminution of times of painful stretchings) for the following compound: CCCCCc1ccc(C(=O)c2cccc(C)c2)cc1 [compound 89]
4.3

Please report Analgesic (percentage diminution of times of painful stretchings) for the following compound: CCCCCc1ccc(C(=O)c2ccccc2)cc1 [compound 23]
10.1

Please report Analgesic (percentage diminution of times of painful stretchings) for the following compound: Cc1ccc(C(=O)c2ccccc2)cc1C [compound 72]
23.4

Please report Analgesic (percentage diminution of times of painful stretchings) for the following compound: CCCCc1ccc(CCCC)c(C(=O)c2ccc(C)cc2)c1 [compound 17]
10.3

---

# procedureDetails: in vivo
# recordedConditions: mouse, po
Just a reminder that ties go to not satisfied: only LD50 at 72 h strictly below 4000 mg/kg counts as satisfied.

Lab note: LD50 at 72 h threshold 4000 mg/kg. Does this compound come in strictly under it? Cc1cc(C)c(C(=O)c2ccccc2I)c(C)c1
satisfied

Lab note: LD50 at 72 h threshold 4000 mg/kg. Does this compound come in strictly under it? CCCCc1ccc(C(=O)c2ccccc2Cl)cc1
satisfied

Lab note: LD50 at 72 h threshold 4000 mg/kg. Does this compound come in strictly under it? COc1ccc(C(=O)C(=O)c2ccccc2)cc1
not satisfied

Lab note: LD50 at 72 h threshold 4000 mg/kg. Does this compound come in strictly under it? Cc1ccc(C(=O)c2ccccc2)c(C)c1
satisfied

Lab note: LD50 at 72 h threshold 4000 mg/kg. Does this compound come in strictly under it? CCCc1ccc(CCC)c(C(=O)c2ccccc2)c1
satisfied

Lab note: LD50 at 72 h threshold 4000 mg/kg. Does this compound come in strictly under it? CC(C)Cc1ccc(C(=O)c2ccccc2F)cc1
satisfied

Lab note: LD50 at 72 h threshold 4000 mg/kg. Does this compound come in strictly under it? Cc1cc(C)c(C(=O)c2ccc(Cl)cc2)c(C)c1
satisfied

Lab note: LD50 at 72 h threshold 4000 mg/kg. Does this compound come in strictly under it? CCCCCc1ccc(C(=O)c2ccc(CCC)cc2)cc1
not satisfied

Lab note: LD50 at 72 h threshold 4000 mg/kg. Does this compound come in strictly under it? CCCc1ccc(C(=O)c2ccccc2I)cc1
not satisfied
